target: Human immunodeficiency virus type 1 protease (Human immunodeficiency virus 1)
met if Ki is below 0.3 nM. not met if not; exact matches included in not met.

Example cases with answers are listed next.
compound	test_target	group_label
Nc1cccc(CN2C(=O)N(Cc3cccc(N)c3)[C@H](Cc3ccccc3)[C@H](O)[C@@H](O)[C@H]2Cc2ccccc2)c1 [MOZENAVIR]	Human immunodeficiency virus type 1 protease (Human immunodeficiency virus 1)	not met
COc1cccc(CN2C(=O)N(Cc3cccc(C(=O)Nc4ccc(C)cn4)c3)[C@H](Cc3ccccc3)[C@H](O)[C@@H](O)[C@H]2Cc2ccccc2)c1	Human immunodeficiency virus type 1 protease (Human immunodeficiency virus 1)	met
COc1cc(CN2C(=O)N(Cc3cccc(C(=O)Nc4cccc(C)n4)c3)[C@H](Cc3ccccc3)[C@H](O)[C@@H](O)[C@H]2Cc2ccccc2)cc(OC)c1	Human immunodeficiency virus type 1 protease (Human immunodeficiency virus 1)	not met
COc1cc(CN2C(=O)N(Cc3cccc(C(=O)Nc4ccc(C)cn4)c3)[C@H](Cc3ccccc3)[C@H](O)[C@@H](O)[C@H]2Cc2ccccc2)cc(OC)c1	Human immunodeficiency virus type 1 protease (Human immunodeficiency virus 1)	not met
COc1cccc(CN2C(=O)N(Cc3cccc(C(=O)Nc4cnccn4)c3)[C@H](Cc3ccccc3)[C@H](O)[C@@H](O)[C@H]2Cc2ccccc2)c1	Human immunodeficiency virus type 1 protease (Human immunodeficiency virus 1)	met

Query: # TODO verify Ki < 0.3 nM strictly for this compound: `COc1cc(CN2C(=O)N(Cc3cccc(C(=O)Nc4cnccn4)c3)[C@H](Cc3ccccc3)[C@H](O)[C@@H](O)[C@H]2Cc2ccccc2)cc(OC)c1`
Result: not met

* * *

assay: Partition coefficient (logP) (HPLC); type: physicochemical; details: octanol/water
Quick reference for logP among some compounds
I only need the number, thanks.

Answered cases to consult:
compound_structure_string	logP
O=C1N(Cc2ccc(CO)cc2)[C@H](Cc2ccccc2)[C@H](O)[C@@H](O)[C@@H](Cc2ccccc2)N1Cc1ccc(CO)cc1	3.56
O=C(Nc1ccccn1)c1cccc(CN2C(=O)N(Cc3cccc([N+](=O)[O-])c3)[C@H](Cc3ccccc3)[C@H](O)[C@@H](O)[C@H]2Cc2ccccc2)c1	5.05
COc1cc(CN2C(=O)N(Cc3cccc(C(=O)Nc4ccc(C)cn4)c3)[C@H](Cc3ccccc3)[C@H](O)[C@@H](O)[C@H]2Cc2ccccc2)cc(OC)c1	5.59
COc1cccc(CN2C(=O)N(Cc3cccc(C(=O)Nc4ccc(C)cn4)c3)[C@H](Cc3ccccc3)[C@H](O)[C@@H](O)[C@H]2Cc2ccccc2)c1	5.51
COc1cc(CN2C(=O)N(Cc3cccc(C(=O)Nc4cnccn4)c3)[C@H](Cc3ccccc3)[C@H](O)[C@@H](O)[C@H]2Cc2ccccc2)cc(OC)c1	4.84
COc1cc(CN2C(=O)N(Cc3cccc(C(=O)Nc4ccccn4)c3)[C@H](Cc3ccccc3)[C@H](O)[C@@H](O)[C@H]2Cc2ccccc2)cc(OC)c1	5.2

Query: Note logP for the compound shown: `Nc1cccc(CN2C(=O)N(Cc3cccc(N)c3)[C@H](Cc3ccccc3)[C@H](O)[C@@H](O)[C@H]2Cc2ccccc2)c1`
Result: 3.17

Query: Note logP for the compound shown: `Nc1cccc(CN2C(=O)N(Cc3cccc(C(=O)Nc4cnccn4)c3)[C@H](Cc3ccccc3)[C@H](O)[C@@H](O)[C@H]2Cc2ccccc2)c1`
Result: 3.77

* * *

molecular target: Human immunodeficiency virus type 1 protease (Human immunodeficiency virus 1) (UniProt Q72874)
measurement_type: IC90 (nM)
A number alone suffices; assume nM.

Answered cases to consult:
compound	IC90 (nM)
N#CCNC(=O)c1cccc(CN2C(=O)N(Cc3cccc(C(=O)NCC(=O)O)c3)[C@H](Cc3ccccc3)[C@H](O)[C@@H](O)[C@H]2Cc2ccccc2)c1	741
COc1cc(CN2C(=O)N(Cc3cccc(C(=O)Nc4cccc(C)n4)c3)[C@H](Cc3ccccc3)[C@H](O)[C@@H](O)[C@H]2Cc2ccccc2)cc(OC)c1	282
COc1cc(CN2C(=O)N(Cc3cccc(C(=O)Nc4ccc(C)cn4)c3)[C@H](Cc3ccccc3)[C@H](O)[C@@H](O)[C@H]2Cc2ccccc2)cc(OC)c1	282
O=C(Nc1cnccn1)c1cccc(CN2C(=O)N(Cc3cccc(C(=O)Nc4cnccn4)c3)[C@H](Cc3ccccc3)[C@H](O)[C@@H](O)[C@H]2Cc2ccccc2)c1	3.5
Cc1ccc(NC(=O)c2cccc(CN3C(=O)N(Cc4cccc(C(=O)Nc5ccc(C)cn5)c4)[C@H](Cc4ccccc4)[C@H](O)[C@@H](O)[C@H]3Cc3ccccc3)c2)nc1	3.1

Query: Note IC90 for the compound shown: `Nc1cccc(CN2C(=O)N(Cc3cccc(C(=O)Nc4nc5ccccc5[nH]4)c3)[C@H](Cc3ccccc3)[C@H](O)[C@@H](O)[C@H]2Cc2ccccc2)c1`
Result: 13.2

Query: Note IC90 for the compound shown: `O=C(Nc1ccccn1)c1cccc(CN2C(=O)N(Cc3cccc(C(=O)Nc4ccccn4)c3)[C@H](Cc3ccccc3)[C@H](O)[C@@H](O)[C@H]2Cc2ccccc2)c1`
Result: 2.8

Where these numbers come from: ChEMBL document CHEMBL1130259
